test system: KURAMOCHI; test: drug sensitivity score (DSS2) on cancer cell count; higher = more sensitive; extreme values may be limits of the assay; conditions: co-cultured fibroblast: BJHTERT; 72 h
result-type: drug sensitivity score (DSS)
The response must be a number in DSS with no trailing unit.

compound: CNC(=O)c1cccc(-c2ccc3c(N4CCOC[C@@H]4C)nc(N4CCOC[C@@H]4C)nc3n2)c1
result-type: drug sensitivity score
value-units: DSS
observed-value: 10.6

// compound COc1cc2nccc(Oc3ccc(NC(=O)C4(C(=O)Nc5ccc(F)cc5)CC4)cc3)c2cc1OC [Cabozantinib] , assay KURAMOCHI, drug sensitivity score value: 0.4

====

system: OVCAR8; test: drug sensitivity score (DSS2) on cancer cell count; higher = more sensitive; extreme values may be limits of the assay; conditions: co-cultured fibroblast: BJHTERT; 72 h
Everything with drug sensitivity score lower than 3 DSS is Criterion not met; everything else, including exactly 3 DSS, is Criterion met.

Entry CC(C)C[C@@H](C(=O)N[C@H](C(=O)OC1CCCC1)c1ccccc1)[C@H](O)C(=O)NO [Tosedostat] : is its drug sensitivity score no less than 3 DSS?
Criterion met

Entry CC1(C)CC[C@]2(NC(=O)C(C)(F)F)CC[C@]3(C)[C@H](C(=O)C=C4[C@@]5(C)C=C(C#N)C(=O)C(C)(C)[C@@H]5CC[C@]43C)[C@@H]2C1 [Omaveloxolone] : is its drug sensitivity score no less than 3 DSS?
Criterion met

Entry CC(=O)OC[C@H]1O[C@@H]([S-])[C@H](OC(C)=O)[C@@H](OC(C)=O)[C@@H]1OC(C)=O.CCP(CC)CC.[Au+] [Auranofin] : is its drug sensitivity score no less than 3 DSS?
Criterion met

Entry CCCCCOC(=O)Nc1nc(=O)n([C@@H]2O[C@H](C)[C@@H](O)[C@H]2O)cc1F [Capecitabine] : is its drug sensitivity score no less than 3 DSS?
Criterion not met

Entry NC(=O)NO [Hydroxyurea] : is its drug sensitivity score no less than 3 DSS?
Criterion not met

====

drug sensitivity score values, listed per item
system: KURAMOCHI; test: drug sensitivity score (DSS2) on cancer cell count; higher = more sensitive; extreme values may be limits of the assay; conditions: co-cultured fibroblast: WI38; 72 h
Answer with the number, then the unit.

Worked examples follow.
molecule: CCS(=O)(=O)c1cccc(-c2cc(C(=O)NC3CCN(C)CC3)c(C)c3[nH]c4ncc(C)cc4c23)c1
target-or-system: KURAMOCHI
drug sensitivity score: 15 DSS

molecule: C=CC(=O)Nc1cc(Nc2nccc(-c3cn(C)c4ccccc34)n2)c(OC)cc1N(C)CCN(C)C
target-or-system: KURAMOCHI
drug sensitivity score: 6.8 DSS

molecule: NC[C@@](O)(c1ccc(Cl)cc1)c1ccc(-c2cn[nH]c2)cc1
target-or-system: KURAMOCHI
drug sensitivity score: 4.2 DSS

molecule: O=C1NC(=O)[C@@H](c2cn3c4c(cccc24)CCC3)[C@@H]1c1c[nH]c2ccccc12 [Tivantinib]
target-or-system: KURAMOCHI
drug sensitivity score: 5.9 DSS

molecule: CC(C)(O)CC(=O)NCCn1ccc2ncnc(Nc3ccc(Oc4cccc(C(F)(F)F)c4)c(Cl)c3)c21
target-or-system: KURAMOCHI
drug sensitivity score: 1.6 DSS

molecule: CC[C@H](Nc1ncnc2[nH]cnc12)c1nc2cccc(F)c2c(=O)n1-c1ccccc1
target-or-system: KURAMOCHI
drug sensitivity score: 5.5 DSS

Value of drug sensitivity score reported for the molecule `Cc1c(Cn2c(C)nc3c(C(=O)O)cc(N4CCOCC4)cc32)cccc1C(F)(F)F` is 0.3 DSS

Value of drug sensitivity score reported for the molecule `CC[C@@H](C(=O)[C@@H](C)[C@@H](O)[C@H](C)[C@@H]1O[C@@H]([C@@H](CC)C(=O)O)CC[C@@H]1C)[C@H]1O[C@]2(C=C[C@@H](O)[C@]3(CC[C@@](C)([C@H]4CC[C@](O)(CC)[C@H](C)O4)O3)O2)[C@H](C)C[C@@H]1C` is 23.6 DSS

Value of drug sensitivity score reported for the molecule `CN1CCC(CNc2ccc3ncc(-c4cccc(OC(F)(F)F)c4)n3n2)CC1` is 6.1 DSS

Value of drug sensitivity score reported for the molecule `CNC(=O)c1ccccc1Sc1ccc2c(/C=C/c3ccccn3)n[nH]c2c1` is 8.4 DSS

Value of drug sensitivity score reported for the molecule `Cc1cccc(-c2[nH]c(CNc3ccccc3F)nc2-c2ccc3ncnn3c2)n1` is 0 DSS

Value of drug sensitivity score reported for the molecule `O=c1[nH]cc(F)c(=O)[nH]1` is 5.4 DSS

Value of drug sensitivity score reported for the molecule `COC(=O)c1ccc2c(c1)[nH]c1ncnc(NCCCN3CCCCC3)c12` is 0 DSS
